// reported solubility for each item listed
experiment: Solubility of compound in 0.01 M sodium phosphate buffer at pH = […]; type: physicochemical; settings: pH 7.4

>  <Compound>
CC(C)C(NC(=O)Cn1c(-c2cccs2)ncc(NC(=O)OCc2ccccc2)c1=O)C(=O)C(F)(F)F (stereo unspecified)

>  <solubility (µg/mL)>
48

$$$$
>  <Compound>
CC(C)c1ncc(NC(=O)OCc2ccccc2)c(=O)n1CC(=O)NC(C(=O)C(F)(F)F)C(C)C (stereo unspecified)

>  <solubility (µg/mL)>
40

$$$$
>  <Compound>
CC(C)C(NC(=O)Cn1c(-c2ccc(C(F)(F)F)cc2)ncc(NC(=O)OCc2ccccc2)c1=O)C(=O)C(F)(F)F (stereo unspecified)

>  <solubility (µg/mL)>
25

$$$$
>  <Compound>
CC(C)C(NC(=O)Cn1c(-c2ccc(F)cc2)ncc(NC(=O)OCc2ccccc2)c1=O)C(=O)C(F)(F)F (stereo unspecified)

>  <solubility (µg/mL)>
6.9

$$$$
>  <Compound>
CC(C)C(NC(=O)Cn1c(C2CCCCC2)ncc(NC(=O)OCc2ccccc2)c1=O)C(=O)C(F)(F)F (stereo unspecified)

>  <solubility (µg/mL)>
42

$$$$
>  <Compound>
CC(C)C(NC(=O)Cn1c(-c2cccnc2)ncc(NC(=O)OCc2ccccc2)c1=O)C(=O)C(F)(F)F (stereo unspecified)

>  <solubility (µg/mL)>
580

$$$$
